Assay: yeast display, Sf9 membrane polyspecificity reagent, FACS + sequencing; frameworks hold sequencing errors
observable: polyreactivity (PSR sort gate)

QVQLVESGGGLVQAGGSLRLSCAASGFTLWLNAMGWYRQAPGKERELVAAITTSDDGTYYADSVKGRFTISRDTAKNTVYLQMNSLKPEDTAVYYCAADYYSVLYDYWGQGTQVTVSS
low polyreactivity
QVQLVESGGGLVQAGGSLRLSCASSGNIFRKYAMAWYRQAPGKERELVAITSGTNTYYADSVKGRFTISRDNAKNTVYVQMNSLKPEDSAVYYCNKSGFRSSHKYDYWGQGTQVTVSS
low polyreactivity

* * *

Assay: yeast display, Sf9 membrane polyspecificity reagent, FACS + sequencing; frameworks hold sequencing errors
observable: polyreactivity (PSR sort gate)

// below: answered sequences
QVQLVESGGGLVQAGGSLRLSCSASGSIFGIYTMGWYRQAPGKERELVAAINSGGSTNYADSVKGRFTISRDNAKNTVYLQMNSLKPEDTAVYYCAAGGSSSWAFNYWGQGTQVTVSS
low polyreactivity
QVQLVESGGGLVQAGGSLRLSCAASGSTLSGNAMGWYRQAPGKERELVAAISWNGGATYYADSVKGRFTISRDNAKNTVYLQMNSQKPEDTAVYYCAAEYIVTYEYWYFGYDYWGQGTQVTVSS
low polyreactivity
QVQLVESGGGLVQAGGSLRLSCAASGFTFYLYTMGWYRQAPGKERELVASLTGSGGSTYYADSVKGRFTISRDNAKNTVYLQMHSLKPEDTAVYYCNARYYVYSATVDRYYHFYYWGQGTQVTVSS
high polyreactivity
QVQLVESGGGLVQAGGSLRLSCAASGSIFRIYAMGWYRQSPGKERELVAAISFSTGSRTYYADSVKGRFTISRDNAKNTVYLQMNSLKPEDTAVYYCNAESYYDYNYWGQGTQVTVSS
low polyreactivity
QVQLVESGGGLVQAGGSLRLSCGASGRIFGINAMGWYRQAPGKERELVAAITKSGGTTYYADSVKGRFTISRDNAKNTVYLQMNTLKPEDTAVYYCAAKGSVVYQLRYDYWGQGTQVTVSS
high polyreactivity

Record polyreactivity (PSR sort gate) for all entries; do not skip any.
1. QVQLVESVGGLVQAGGSLRLSCAASGRTFVVYAMGWYRQEPGKERELVAAIRVSDGSTYYADSEKGRFTISREISKNTVYLQMNSLNPEDTAVYYCNAESFRGFYYWGQGTQVTVSS
2. QVQLVESGGGLVQAGVSLRLSCAASGSTFYWYAMGWYRQAPGKERELVAAITYSSGRTYYADSEKGRFTISRDNAKNTVYLQMNSLKPEDTAVYYCGWSALNGYDYWGQGTQVTVSS
3. QVQLVESGGGLVQAVGSLRLSCAASVSTFRHYAMGWYRQAPGKERELVAAISSTGGSTYYADSVKGRFTISRDNAKNTVYLQMNSLKPEDTAVYYCAARRLYWGQGTQVTVSS
4. QVQLVESGVGLVQAGGSLRLRCAASGFIFIHNAMGWYRQAPGKERELVAAISYSGGSTYYADSVKGRFTISRDTAKNTVYLQMNSLKPEDTAVYFCNRVQYYRADRMDYWGQGTQVTVSS

-- reply
1: high polyreactivity; 2: high polyreactivity; 3: high polyreactivity; 4: low polyreactivity

Record polyreactivity (PSR sort gate) for all entries; do not skip any.
1. QVQLVESGGGLVQAGGSLRLSCAASGSTFGGNAMGWYRQAPGKERELVAAITIGGRTNYADSVKGRFTISRDNAKNTVYLQMNSLKPEDTAVYYCAKDRDQWQDYWGQGTQVTVSS
2. QVQLVESGGGIVQVGRSLPISSAAYGRTFVYYAMGWYRQAPGKERELVARISRSGGRTFYADSVKGRFTISRDNAKNTVYLVLYSQKPEDTAVYYCNSSDVHVTTYGYWGQGTQVSVSS

-- reply
["low polyreactivity", "low polyreactivity"]

* * *

Experiment: yeast display, Sf9 membrane polyspecificity reagent, FACS + sequencing; frameworks hold sequencing errors
observable: polyreactivity (PSR sort gate)

KVQLVESGGGLVQAGGSLRLSCAASGGIFYYYAMGWYRQAPGKERELVAAISSGGGTNYADSVKGRFTISRDNAKNTVYLQMNSVKPEDTAVYYCAADQGRDTGYDYWGQGTQVTVSS
low polyreactivity
QVQLVESRGGLVQAGGSLRLSCAASGITFYVNDMGWYRQEPGTERELVAAISYRGGSTYYADSVKGRFTISRDNAKNTVYLQMNSLKPEDTAVYYCAADYNYWSPHRDDYWGQGTQVTVSS
low polyreactivity

* * *

Test: yeast display, Sf9 membrane polyspecificity reagent, FACS + sequencing; frameworks hold sequencing errors
observable: polyreactivity (PSR sort gate)

// below: answered sequences
QVQLVESGGGLVQAGGSLRLSCAASGSTFKIYAMGWYRQAPGKERELVARITGRGGSTYYADSVKGRFTISRDNAKNTVYLQMNSLKPEDTAVYYCAARTYYVPYYYWGQGTQVTVSS
high polyreactivity
QVQLVESGGGLVQAGGSLRLSCAASGITFKPYGMGWYRPAPGKERELVADITSGGITYYADSVKGRFTISRDNAKNTVYLQMNSLKPEDTAVYYCATGDLFVYYWGYVVRLYDYWGQGTQVTVSS
low polyreactivity
QVQLVESGGGLVQAGGSLRLSCAASGSTSYWYAMGWYRQAPGKERELVAAISSDDSTHYADSVKGRFTISRDNAKNTVYLQMNSLKPEDTAVYYFNREHYLIRYDYWGQGTQVTVSS
low polyreactivity
QVQIVESGGGLVQAGGSLRLSCAASGFNYRGYAMGWYRQAPGKERELVASIRWNGGSTYYADSVKGRFTISRDNAKNTVYLLMNSLKPEDTAVYYCAAAYRYYGVAYGYDWGQGTQVTVSS
high polyreactivity

Continue with the next sequence.
-- ask If you can, please state the reported polyreactivity (PSR sort gate) value of QVQLVESGGGLVQAGGSLRLSCAASGRIFYGYTMGWYRQAPGKERELVARISSSGSTYYADSVKGRFTISRDNAKNTVYLQMNSLKPEDTAVYYCAAVRRRYGYDYWGQGTQVTVSS .
-- reply high polyreactivity

* * *

Assay: yeast display, Sf9 membrane polyspecificity reagent, FACS + sequencing; frameworks hold sequencing errors
observable: polyreactivity (PSR sort gate)

QDQLVESVGGLVQAGGSLRLSCAASGRIFWVNAMGWSRQAPGKERELVAAISWTSGSTYYADSVKGRFTISRDNAKNTVYLQMNSLKPEDTAVYYCNKVQSGEYDYWGQGTQVTVSS
high polyreactivity
QVQLVESGGGLVQAGGSLRLSCAASGLIFDKYAMGWYRQAPGKERELVAAITRSSGTTYYADSVKGSFTISRDNAKNTVYLQMNSLKPEDTAVYYCATDVDKSLYDYWGQGTQVTVSS
low polyreactivity
QVQLVESGGGLVQAGGSLRLSCAASGIIFDCNSMGWYRQAPGKERELVAANTSSTDSTYYADSVKGRFTISRDNAKNTVYLQLNSLKPEDTAVYYCAAAYPSKTFDYWGQGTQVTESS
low polyreactivity
QVQLVESGGGLVQAGGSLRLSCAASGLIFATYAMGWYRQAPGKERELVAAISIRGGITYYADSVKGRFTISRDNAKNTVYLQMNSLKPEDTAVYYCAARYSRAGISHRMDYWGQGTQVTVSS
high polyreactivity
QVQLVESGGGLVQAGGSLRLSCAASGRNFRDYDMGWYRQAPGKERELGAAITYDGYSTYYADSVKGRFTISRDNAKNTVYLQMNSLKPEDTAVYYCNADDDVTYFTYYSGGLYYWGQGTQVTVSS
low polyreactivity

Record polyreactivity (PSR sort gate) for all entries; do not skip any.
1. QVQLVESGGGLVQAGGSLRLSCAASGSIFTPYAMGWYRQAPGKEREVVATITWTGGSTYYADSVKGRFTISRDNAINTVYLQMNSLKPEDTAVYYCAADTYRSGRAYYYWGQGTQVTVSS
2. QVQLVESGGGLVQAGGSLRLSCAASGFTFSFYAIGWYRQAPGKERELVAAINYSGGRTYYADSVKGRFTISRDNAKNTVYLQMNSLKPEDTAVYYCAVHIPSVSGVTDYYYWGQGSQVTVSS
3. QVQLVESVGGLVQAGGSLRLSCAASGSTFGYNAMGWYRKAPGKERELVAGITSSGGSTYYADSVKGRFTISRDNAKNTVYLQMNSLKPEDTAVYYCAKAFYRHSSPNNSEYWGQGTQVTVSS
4. QVQLVESGGGLVQAGGSLRLSCAASGRIFQPYAMGWYRQAPGKERELVAAITRSGGSTYYADSVKGRFTISRDNAMNTVDLQLNSLKPEDTAVSYCASKVLYPYEYWGQGTQVTVSS
5. QVQLVESGGGLVQAGGSLRLSCAASGRTFGTNTMGWYRQAPGKVRELVATISSSSGSTYYADSVKGRFTISRDNAKNTVYFQMNSLKPEDTAVYYCAALCRWRYKRYDYWGQGTQVTVSS
6. QVQLVESGGGLVQAGGSLRLSCAASGRNFRRYAMGWYRQAPGKERELVATISGSGTSTYYADSVKGRFTISRDNAKNTVYLQMNSLKPEDTAVYYCAAGNPYYRTSQYYHWGQGTQVTVSS
7. QVQLVESGGGLVQAGGSLRLSCAASGSNFGEYAMGWYRQAPGKERELVAAITSGGNTYYADSVKGRFTISRDNAKNTVYLQMNSLKPEDTAVYYCAATRTRYWGGDYWGQGTQVTVSS
8. QVQLVESGGGLVQAGGSLRLSCAASGFIFSWYAMGWYRQAPGKERELVAAIDQSGDSTYYADSVKGRFTISRDNAKNTVYLQMNSLKPEDTAVYYCAAQSYDYWYDYDYWGQGTQVTVSS

-- reply
["low polyreactivity", "high polyreactivity", "low polyreactivity", "low polyreactivity", "high polyreactivity", "high polyreactivity", "low polyreactivity", "high polyreactivity"]
